Form field: F(%) oral bioavailability (one value per entry).
# recorded conditions: rat, in vivo
Express the result in % but write the number alone.

mol smiles	F(%) oral bioavailability
COc1nc2ccc(Br)cc2cc1[C@@H](c1ccnc(OC)c1OC)[C@@](O)(CCN(C)C)c1cccc(C)c1	40
COc1nc2ccc(Br)cc2cc1[C@@H](c1cncc(C)c1)[C@@](O)(CCN(C)C)c1cccc(F)c1	24
CCSc1ccc([C@H](c2cc3cc(Br)ccc3nc2OC)[C@@](O)(CCN(C)C)c2cccc(F)c2)cn1	30
COc1cc([C@H](c2cc3cc(Br)ccc3nc2OC)[C@@](O)(CCN(C)C)c2cccc(F)c2)cnc1OC	36

Data request, read-out F(%) oral bioavailability, for `COc1nc2ccc(Br)cc2cc1[C@@H](c1cc(C)c(C)s1)[C@@](O)(CCN(C)C)c1cccc(F)c1`
48

Data request, read-out F(%) oral bioavailability, for `COc1nc2ccc(Br)cc2cc1[C@@H](c1ccc(N(C)C)nc1)[C@@](O)(CCN(C)C)c1cccc(F)c1`
45

Data request, read-out F(%) oral bioavailability, for `COc1nc2ccc(Br)cc2cc1[C@@H](c1ccnc(OC)c1OC)[C@@](O)(CCN(C)C)c1cccc(C#N)c1`
68

Source of measurements: paper PMC5696560
